- study_system: T1, human Fibroblast Activation Protein (FAP), soluble antigen (human, UniProt Q12884 26-760, biotinylated when immobilized on streptavidin sensors)
- T1 construct: also called hFAP; biotinylated FAP
- T1 sequence (Q12884 26-760 limits assumed): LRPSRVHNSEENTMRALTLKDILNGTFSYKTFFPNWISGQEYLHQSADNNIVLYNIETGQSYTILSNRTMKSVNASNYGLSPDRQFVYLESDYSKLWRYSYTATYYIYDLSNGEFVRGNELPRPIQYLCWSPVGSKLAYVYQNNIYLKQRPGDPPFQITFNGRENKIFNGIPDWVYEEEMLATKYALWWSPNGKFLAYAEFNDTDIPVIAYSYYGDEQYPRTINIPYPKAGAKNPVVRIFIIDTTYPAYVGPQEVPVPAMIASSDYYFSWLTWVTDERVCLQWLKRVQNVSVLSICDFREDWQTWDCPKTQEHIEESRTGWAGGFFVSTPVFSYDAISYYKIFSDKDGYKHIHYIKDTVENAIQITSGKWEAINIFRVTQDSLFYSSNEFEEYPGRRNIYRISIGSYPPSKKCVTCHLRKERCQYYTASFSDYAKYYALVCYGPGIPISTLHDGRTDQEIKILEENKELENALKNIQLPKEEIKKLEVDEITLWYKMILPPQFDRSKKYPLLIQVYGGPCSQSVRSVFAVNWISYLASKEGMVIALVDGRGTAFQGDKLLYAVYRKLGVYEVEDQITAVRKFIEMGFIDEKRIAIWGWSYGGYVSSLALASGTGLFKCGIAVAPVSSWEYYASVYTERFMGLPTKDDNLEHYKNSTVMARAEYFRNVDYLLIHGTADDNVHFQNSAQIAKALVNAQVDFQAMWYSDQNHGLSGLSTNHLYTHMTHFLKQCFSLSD
- method_summary: Affinity (nM), Table 13B
Below, each entry is listed alongside its reported Kd.
Report as a plain number; the unit nM is understood.

Please review the following examples before continuing.
- binder: "D029 HV3LV4 (bispecific antibody, V domains shown, also called D029-Rev1:Q27G:P94Y/S55L:T30R:S32F) VH: EVQLVESGGGLVQPGGSLRLSCAASGFTFRWFFMSWVRQAPGKGLEWVSWIGPSGLYTDYADSVKGRFTISRDNSKNTLYLQMNSLRAEDTAVYYCARSQYGRYYSPDYYFDYWGQGTLVTVSS VL: DIQMTQSPSSLSASVGDRVTITCRASGALGFYLNWYQQKPGKAPKLLIYAASSLSSGVPSRFSGSGSGTDFTLTISSLQPEDFATYYCQQGRTYPLTFGQGTKVEIKR"
  reading: 2.3
- binder: "D029 HV2LV2 (bispecific antibody, V domains shown, also called Rev1-Q27G:P94Y:L96F/S55L:S32F) VH: EVQLVESGGGLVQPGGSLRLSCAASGFTFTWFFMSWVRQAPGKGLEWVSWIGPSGLYTDYADSVKGRFTISRDNSKNTLYLQMNSLRAEDTAVYYCARSQYGRYYSPDYYFDYWGQGTLVTVSS VL: DIQMTQSPSSLSASVGDRVTITCRASGALGFYLNWYQQKPGKAPKLLIYAASSLSSGVPSRFSGSGSGTDFTLTISSLQPEDFATYYCQQGRTYPFTFGQGTKVEIKR"
  reading: 2
- binder: "D029 HV2LV3 (bispecific antibody, V domains shown, also called Rev1-Q27G:L96F/S55L:S32F; two-in-one antibody within FB-675) VH: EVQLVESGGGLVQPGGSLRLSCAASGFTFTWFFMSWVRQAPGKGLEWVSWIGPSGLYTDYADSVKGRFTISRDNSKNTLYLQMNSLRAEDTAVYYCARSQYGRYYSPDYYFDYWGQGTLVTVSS VL: DIQMTQSPSSLSASVGDRVTITCRASGALGFYLNWYQQKPGKAPKLLIYAASSLSSGVPSRFSGSGSGTDFTLTISSLQPEDFATYYCQQGRTPPFTFGQGTKVEIKR"
  reading: 3.7
- binder: "D029 HV2LV4 (bispecific antibody, V domains shown, also called Rev1-Q27G:P94Y/S55L:S32F) VH: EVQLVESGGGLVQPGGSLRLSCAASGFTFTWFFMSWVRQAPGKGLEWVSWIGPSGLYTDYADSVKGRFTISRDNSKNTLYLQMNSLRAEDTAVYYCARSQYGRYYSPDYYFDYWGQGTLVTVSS VL: DIQMTQSPSSLSASVGDRVTITCRASGALGFYLNWYQQKPGKAPKLLIYAASSLSSGVPSRFSGSGSGTDFTLTISSLQPEDFATYYCQQGRTYPLTFGQGTKVEIKR"
  reading: 1.5
- binder: "D029HV6LV2 (bispecific antibody, V domains shown, also called Rev1-Q27G:P94Y:L96F/S55L:S32A) VH: EVQLVESGGGLVQPGGSLRLSCAASGFTFTWAFMSWVRQAPGKGLEWVSWIGPSGLYTDYADSVKGRFTISRDNSKNTLYLQMNSLRAEDTAVYYCARSQYGRYYSPDYYFDYWGQGTLVTVSS VL: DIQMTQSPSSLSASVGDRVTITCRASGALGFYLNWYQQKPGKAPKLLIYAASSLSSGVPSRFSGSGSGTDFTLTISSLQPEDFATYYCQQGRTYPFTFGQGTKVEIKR"
  reading: 62

Could you now consider this next binder?
Please look up its Kd: D029 HV3LV2 (bispecific antibody, V domains shown, also called D029L-Rev1:Q27G:P94Y:L96F/S55L:T30R:S32F) VH: EVQLVESGGGLVQPGGSLRLSCAASGFTFRWFFMSWVRQAPGKGLEWVSWIGPSGLYTDYADSVKGRFTISRDNSKNTLYLQMNSLRAEDTAVYYCARSQYGRYYSPDYYFDYWGQGTLVTVSS VL: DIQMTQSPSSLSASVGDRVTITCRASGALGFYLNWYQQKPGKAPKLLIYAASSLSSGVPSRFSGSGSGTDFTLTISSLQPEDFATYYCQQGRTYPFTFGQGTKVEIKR 100
